# target.system: ACA-6501 aPL antibody
# test.description: competitive ELISA I50; antibody not given, ACA-6501 serum on CL/β2-GPI assumed (Ex. 4B)
Square brackets hold non-standard residues; d marks the D form. Ends that are not written are not given here. Orn = NCCC[C@H](N)C(=O)O; Sar = CNCC(=O)O
Quick reference for IC50 among some binders

Consider the reported IC50 for these binders:
binder | IC50
CLGVL[Sar]KLC (not fully specified (bridges); cysteine pairing not given here) [3G3 N-Me amino acids 6: CLGVL-nG-KLC] | 550 µg/mL
CLGVLGKAC [3G3 Ala scan 7: …] | 360 µg/mL
CLGVLG[Orn]LC (not fully specified (bridges); cysteine pairing not given here) [3G3 basic amino acid 2: CLGVLG-Or-LC] | 40 µg/mL

Asked: Which IC50 reading was recorded for the binder CLGVLGKGC [3G3 Gly scan 5: …] ?
Given back: 500 µg/mL

Data origin, for the record: patent US6410775
